The measurements presented in this section are drawn from patent US20240174634A1.

biological target: ALDH1A3 (Homo sapiens, UniProt P47895); test: ALDH1A3 cellular assay (ALDEFLUOR) in WM266.4 melanoma cells; type: cell-based; settings: WM266.4 cells; 60 min incubation; percentage of ALDH-positive cells
Sequence (P47895 whole entry): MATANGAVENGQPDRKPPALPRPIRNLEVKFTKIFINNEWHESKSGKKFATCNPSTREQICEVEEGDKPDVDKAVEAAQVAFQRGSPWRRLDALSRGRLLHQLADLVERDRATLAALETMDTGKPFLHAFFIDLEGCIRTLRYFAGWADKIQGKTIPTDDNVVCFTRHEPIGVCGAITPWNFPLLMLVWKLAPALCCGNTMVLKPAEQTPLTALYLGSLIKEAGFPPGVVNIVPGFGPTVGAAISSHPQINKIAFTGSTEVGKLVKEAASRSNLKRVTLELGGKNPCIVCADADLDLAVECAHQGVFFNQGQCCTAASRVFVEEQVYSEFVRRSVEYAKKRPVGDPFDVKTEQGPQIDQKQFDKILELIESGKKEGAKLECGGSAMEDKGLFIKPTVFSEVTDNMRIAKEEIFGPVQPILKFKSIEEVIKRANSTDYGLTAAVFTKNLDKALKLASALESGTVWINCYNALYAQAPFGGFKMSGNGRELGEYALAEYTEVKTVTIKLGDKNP
endpoint: IC50

Known results for compounds:
# compound, IC50
records = [
    ("O=C1CCc2cc(OCCN3CC(O)CC3c3cccc(F)c3)ccc2N1 (mixture of isomers) [ALDHI-2035]", "< 100 nM"),
    ("O=C1CCc2cc(NC(=O)c3ocnc3-c3cccc(F)c3)ccc2N1 [ALDHI-1019]", "1000 to 10000 nM"),
    ("O=C1CCc2cc(OCCN3CCCC3c3ccncc3)ccc2N1 (centres unmarked) [ALDHI-2004]", "1000 to 10000 nM"),
    ("CN(CCOc1ccc2c(c1)CCC(=O)N2)C(=O)c1cccc(F)c1 [ALDHI-3008]", "100 to 1000 nM"),
]

Please turn your attention to the following entry.
Q) Please give the measured IC50 for this compound: O=C1CCCc2cc(OCCN3CCCC3c3cccc(F)c3)ccc2N1 (centres unmarked) [ALDHI-2020]
A) 100 to 1000 nM

###

biological target: ALDH1A1 (Homo sapiens, UniProt P00352); construct: His-tag; made in house; host or cells: E. coli Rosetta (DE3); assay: Selectivity biochemical assay, NAD(P)H-Glo Detection System
Sequence (P00352 whole entry): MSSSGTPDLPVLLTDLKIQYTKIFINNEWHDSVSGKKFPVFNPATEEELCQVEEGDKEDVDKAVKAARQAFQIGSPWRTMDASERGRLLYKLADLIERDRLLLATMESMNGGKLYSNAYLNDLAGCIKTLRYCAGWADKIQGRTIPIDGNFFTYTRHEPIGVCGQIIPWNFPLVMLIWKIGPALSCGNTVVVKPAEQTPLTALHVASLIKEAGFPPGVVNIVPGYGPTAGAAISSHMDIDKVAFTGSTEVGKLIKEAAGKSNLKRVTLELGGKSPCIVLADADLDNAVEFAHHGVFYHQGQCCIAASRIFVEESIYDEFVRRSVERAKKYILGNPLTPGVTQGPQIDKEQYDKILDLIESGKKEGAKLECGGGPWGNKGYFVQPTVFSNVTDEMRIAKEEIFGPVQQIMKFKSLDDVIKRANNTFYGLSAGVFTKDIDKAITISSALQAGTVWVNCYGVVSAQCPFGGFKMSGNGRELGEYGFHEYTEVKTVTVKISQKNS
pIC50: −log10 of the molar value.
# Lookup of reported pIC50 keyed by entry

Known results for compounds:
# compound, endpoint, measured
measured = [
    ("Cc1cccc(C2CCCN2CCOc2ccc3c(c2)CCC(=O)N3)c1 (stereo not shown)", "pIC50", "≤ 4.00"),
    ("CC1CN(CCOc2ccc3c(c2)CCC(=O)N3)C(c2ccccc2)CO1 (mixture of isomers)", "pIC50", "4.00 to 5.00"),
    ("CN(CCOc1ccc2c(c1)CCC(=O)N2)C(=O)c1cccnc1", "pIC50", "≤ 4.00"),
    ("Cc1cccc(-c2ncsc2C(=O)Nc2ccc3c(c2)CCC(=O)N3)c1", "pIC50", "≤ 4.00"),
    ("O=C1CCc2cc(NC(=O)c3ncsc3-c3cccnc3)ccc2N1", "pIC50", "≤ 4.00"),
    ("O=C1CCc2cc(OCCN3CCCC3c3ccsc3)ccc2N1 (stereo not shown)", "pIC50", "≤ 4.00"),
    ("CN(CCOc1ccc2c(c1)CCC(=O)N2)Cc1ccncc1", "pIC50", "≤ 4.00"),
    ("O=C1CCc2cc(OCCN3CCC[C@H]3c3cccc(F)c3)ccc2N1", "pIC50", "≤ 4.00"),
]

Please turn your attention to the following entry.
Q) Please give the measured pIC50 for this compound: O=C1CCc2cc(NC(=O)c3sc(N4CCNCC4)nc3-c3cccc(F)c3)ccc2N1
A) ≤ 4.00

###

# Lookup of reported IC50 keyed by entry
Molecular target: UniProtKB P47895
Assay: Primary biochemical assay, NAD(P)H-Glo Detection System
Parameters: His-tag; made in house; host or cells: E. coli Rosetta (DE3)
Settings: 30 min pre-incubation, propionaldehyde and NAD at Km
Excerpt: Cloning: Open reading frames corresponding to the protein coding sequences of full length human ALDH1A1 (Uniprot ID P00352), ALDH1A2 (094788) and ALDH1A3 (P47895) were polymerase chain reaction (PCR) amplified from human cDNA and inserted into the multi-cloning sites of the commercially available (Novagen) E. coli expression vectors pET47b (ALDH1A1, EcoRI restriction site; ALDH1A2, BamHI and EcoRI sites) or pET28a (ALDH1A3, NdeI and BamHI sites), using standard molecular genetic techniques. […]

# molecule, endpoint, measured
records = [
    ("O=C1CCc2cc(NC(=O)c3scnc3-c3cccc(C(F)(F)F)c3)ccc2N1", "IC50", "1000 to 10000 nM"),
    ("CC1Oc2cc(OCCN3CCCC3c3cccc(F)c3)ccc2NC1=O (stereo not drawn)", "IC50", "< 100 nM"),
    ("CN(CCOc1ccc2c(c1)CCC(=O)N2)C(=O)c1cccc(F)c1", "IC50", "100 to 1000 nM"),
]

Q) Please give the measured IC50 for this molecule: O=C1CCc2cc(NC(=O)c3sc(N4CCNCC4)nc3-c3cccc(F)c3)ccc2N1
A) < 100 nM

Q) Please give the measured IC50 for this molecule: Cc1cccc(-c2ncsc2C(=O)Nc2ccc3c(c2)CCC(=O)N3)c1
A) 1000 to 10000 nM

Q) Please give the measured IC50 for this molecule: O=C1CCc2cc(NC(=O)c3ocnc3-c3cccc(F)c3)ccc2N1
A) 100 to 1000 nM

Q) Please give the measured IC50 for this molecule: O=C1CCc2cc(NC(=O)c3sccc3-c3cccc(F)c3)ccc2N1
A) 100 to 1000 nM

Q) Please give the measured IC50 for this molecule: O=C1CCc2cc(NC(=O)c3ncccc3-c3cccc(F)c3)ccc2N1
A) 1000 to 10000 nM

Q) Please give the measured IC50 for this molecule: O=C1CCc2cc(OCCN3CC(O)CC3c3cccc(F)c3)ccc2N1 (mixture of isomers)
A) < 100 nM

###

The next entries give measured pIC50 for ALDH2 (Homo sapiens).
pIC50: −log10 of the molar value.

Known results for compounds:
# compound, pIC50
measured = [
    ("O=C1CCc2cc(NC(=O)c3c[nH]nc3-c3cccc(F)c3)ccc2N1", "4.00 to 5.00"),
    ("O=C1CCc2cc(NC(=O)c3sc(N4CCNCC4)nc3-c3cccc(F)c3)ccc2N1", "≤ 4.00"),
    ("O=C1CCc2cc(OCCN3CCCC3c3cccc(F)c3)c(F)cc2N1 (stereo not drawn)", "≤ 4.00"),
]

Q) Give the reported pIC50 for O=C1CCc2cc(NC(=O)c3scnc3-c3ccc(F)cc3)ccc2N1 (system: ALDH2 (Homo sapiens)).
Sequence (P05091 18-517): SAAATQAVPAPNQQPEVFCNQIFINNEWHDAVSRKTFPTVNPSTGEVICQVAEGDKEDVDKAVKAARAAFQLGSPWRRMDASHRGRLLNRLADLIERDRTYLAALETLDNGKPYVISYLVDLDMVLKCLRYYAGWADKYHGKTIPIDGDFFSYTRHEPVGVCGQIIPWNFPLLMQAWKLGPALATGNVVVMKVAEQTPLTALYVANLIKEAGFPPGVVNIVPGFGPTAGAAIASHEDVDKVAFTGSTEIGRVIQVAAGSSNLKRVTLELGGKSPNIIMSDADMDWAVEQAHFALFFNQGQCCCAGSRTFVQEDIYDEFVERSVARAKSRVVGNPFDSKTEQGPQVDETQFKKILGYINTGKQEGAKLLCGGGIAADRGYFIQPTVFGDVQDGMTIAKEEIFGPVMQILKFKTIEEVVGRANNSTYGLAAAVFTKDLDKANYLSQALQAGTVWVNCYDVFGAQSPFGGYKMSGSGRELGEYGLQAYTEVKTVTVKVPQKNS
A) ≤ 4.00

Q) Give the reported pIC50 for O=C1CCc2cc(OCCN3CCC3c3cccc(F)c3)ccc2N1 (stereo not drawn) (system: ALDH2 (Homo sapiens)).
A) ≤ 4.00

###

target: ALDH1A3 (Homo sapiens, UniProt P47895); experiment: ALDH1A3 cellular assay (ALDEFLUOR) in WM266.4 melanoma cells; assay type: cell-based; details: WM266.4 cells; 60 min incubation; percentage of ALDH-positive cells
endpoint: IC50

# compound, target_or_system, measured
rows = [
    ("O=C1CCc2cc(OCCN3CCCC3c3ccsc3)ccc2N1 (centres unmarked) [ALDHI-2014]", "ALDH1A3 (Homo sapiens, UniProt P47895)", "100 to 1000 nM"),
    ("O=C1CCc2cc(NC(=O)c3sc(N4CCNCC4)nc3-c3cccc(F)c3)ccc2N1 [ALDHI-1005]", "ALDH1A3 (Homo sapiens, UniProt P47895)", "< 100 nM"),
    ("O=C1CCc2cc(OCCN3CCC3c3cccc(F)c3)ccc2N1 (centres unmarked) [ALDHI-2021]", "ALDH1A3 (Homo sapiens, UniProt P47895)", "1000 to 10000 nM"),
    ("O=C1CCc2cc(NC(=O)c3ncsc3-c3cccc(F)c3)ccc2N1 [ALDHI-1014]", "ALDH1A3 (Homo sapiens, UniProt P47895)", "1000 to 10000 nM"),
]

Please turn your attention to the following entry.
Q) Please give the measured IC50 for this compound: O=C1CCc2cc(NC(=O)c3cncnc3-c3cccc(F)c3)ccc2N1 [ALDHI-1018]
A) 100 to 1000 nM

###

biological target: ALDH1A3 (Homo sapiens, UniProt P47895); assay: Primary biochemical assay, NAD(P)H-Glo Detection System; parameters: His-tag; made in house; host or cells: E. coli Rosetta (DE3); details: 30 min pre-incubation, propionaldehyde and NAD at Km
pIC50: −log10 of the molar value.
endpoint: pIC50

Known results for molecules:
# molecule, pIC50
measured = [
    ("O=C1CCc2cc(NC(=O)c3ncsc3-c3cccc(F)c3)ccc2N1", "6.00 to 7.00"),
    ("Cc1onc(-c2cccc(F)c2)c1C(=O)Nc1ccc2c(c1)CCC(=O)N2", "5.00 to 6.00"),
    ("O=C1CCc2cc(OCCN3CCCC3c3ccncc3)ccc2N1 (stereo not drawn)", "6.00 to 7.00"),
    ("O=C1CCc2cc(OCCn3nccc3-c3cccc(F)c3)ccc2N1", "> 7.00"),
    ("Cc1ccc(C2CCCN2CCOc2ccc3c(c2)CCC(=O)N3)cn1 (stereo not drawn)", "6.00 to 7.00"),
    ("C[C@H](c1ccccc1)N(CCO)CCOc1ccc2c(c1)CCC(=O)N2", "6.00 to 7.00"),
    ("O=C1CCc2cc(OCCN3CCCC3c3cccs3)ccc2N1 (stereo not drawn)", "> 7.00"),
    ("O=C1CCc2cc(NC(=O)c3scnc3-c3cccc(F)c3)ccc2N1", "> 7.00"),
]

Q) Please give the measured pIC50 for this molecule: O=C1CSc2cc(OCCN3CCCC3c3ccncc3)ccc2N1 (stereo not drawn)
A) 6.00 to 7.00

Q) Please give the measured pIC50 for this molecule: CN(CCOc1ccc2c(c1)CCC(=O)N2)Cc1cccnc1
A) 6.00 to 7.00

Q) Please give the measured pIC50 for this molecule: O=C1CCc2cc(OCCN3CCOCC3c3cccc(F)c3)ccc2N1 (stereo not drawn)
A) > 7.00

Q) Please give the measured pIC50 for this molecule: O=C1CCc2cc(NC(=O)c3cncnc3-c3cccc(F)c3)ccc2N1
A) 6.00 to 7.00

Q) Please give the measured pIC50 for this molecule: O=C1CCc2cc(OCCN3CCC[C@@H]3c3cccc(F)c3)ccc2N1
A) > 7.00

Q) Please give the measured pIC50 for this molecule: O=C1CCc2cc(NC(=O)c3scnc3-c3ccccc3Cl)ccc2N1
A) 5.00 to 6.00

Q) Please give the measured pIC50 for this molecule: Cc1ccc(C2CCCN2CCOc2ccc3c(c2)CCC(=O)N3)cc1 (stereo not drawn)
A) > 7.00

Q) Please give the measured pIC50 for this molecule: CCC1Oc2cc(OCCN3CCCC3c3cccc(F)c3)ccc2NC1=O (stereo not drawn)
A) > 7.00

Q) Please give the measured pIC50 for this molecule: O=C1CCc2cc(OCCN3CCCC3c3cccnc3)ccc2N1 (stereo not drawn)
A) > 7.00

Q) Please give the measured pIC50 for this molecule: C[C@@H](c1ccccc1)N(CCO)CCOc1ccc2c(c1)CCC(=O)N2
A) 6.00 to 7.00
